tested on: Flt-1 receptor; assay: Flt-1 receptor binding ELISA (inhibition of biotinylated native VEGF binding to Flt-IgG); conditions: second figure of the cell, ratio to native VEGF (8-109)
Sequence (P17948 27-327 limits assumed): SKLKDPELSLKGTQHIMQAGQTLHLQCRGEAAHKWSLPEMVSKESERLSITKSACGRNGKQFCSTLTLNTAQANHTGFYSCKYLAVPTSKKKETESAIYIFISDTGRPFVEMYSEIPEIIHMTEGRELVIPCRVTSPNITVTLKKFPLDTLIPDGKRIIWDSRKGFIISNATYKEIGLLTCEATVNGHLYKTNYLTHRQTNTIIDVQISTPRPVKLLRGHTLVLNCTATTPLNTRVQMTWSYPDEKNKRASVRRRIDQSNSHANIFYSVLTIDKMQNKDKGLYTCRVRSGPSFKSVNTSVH

| molecule | Relative Binding Affinity FLT-1 Receptor |
| --- | --- |
| LK-VRB-8s*: VEGF (1-109) variant, Y2IL/D63S/G65M/LG6R as printed (protein) APMAEGGGQNHHEVVKFMDVLQRSYCHPIETLVDIFQEYPDEIEYIFKPSCVPLMRCGGCCNSEMRECVPTEESNITMQIMRIKPHQGQHIGEMSFLQHNKCECRPKKD | />21000 |
| LK-VRB-22s: VEGF (1-109) variant, GG5M/M18E/Y21L/Q22R/Y25S as printed (protein) APMAEGGGQNHHEVVKFEDVLRRSSCHPIETLVDIFQEYPDEIEYIFKPSCVPLMRCGGCCNDEMLECVPTEESNITMQIMRIKPHQGQHIGEMSFLQHNKCECRPKKD | />30 |
| LK-VRB-15s: VEGF (1-109) variant, Y21L/Y25S/D63S/G65M/L66R (protein) APMAEGGGQNHHEVVKFMDVLQRSSCHPIETLVDIFQEYPDEIEYIFKPSCVPLMRCGGCCNSEMRECVPTEESNITMQIMRIKPHQGQHIGEMSFLQHNKCECRPKKD | />21000 |
